# SUBJECT OF TEST: EGFR mutant L858R Ba/F3 cells (Homo sapiens, UniProt P00533, L858R, cells depend on it)
# Sequence (P00533 whole entry L858R): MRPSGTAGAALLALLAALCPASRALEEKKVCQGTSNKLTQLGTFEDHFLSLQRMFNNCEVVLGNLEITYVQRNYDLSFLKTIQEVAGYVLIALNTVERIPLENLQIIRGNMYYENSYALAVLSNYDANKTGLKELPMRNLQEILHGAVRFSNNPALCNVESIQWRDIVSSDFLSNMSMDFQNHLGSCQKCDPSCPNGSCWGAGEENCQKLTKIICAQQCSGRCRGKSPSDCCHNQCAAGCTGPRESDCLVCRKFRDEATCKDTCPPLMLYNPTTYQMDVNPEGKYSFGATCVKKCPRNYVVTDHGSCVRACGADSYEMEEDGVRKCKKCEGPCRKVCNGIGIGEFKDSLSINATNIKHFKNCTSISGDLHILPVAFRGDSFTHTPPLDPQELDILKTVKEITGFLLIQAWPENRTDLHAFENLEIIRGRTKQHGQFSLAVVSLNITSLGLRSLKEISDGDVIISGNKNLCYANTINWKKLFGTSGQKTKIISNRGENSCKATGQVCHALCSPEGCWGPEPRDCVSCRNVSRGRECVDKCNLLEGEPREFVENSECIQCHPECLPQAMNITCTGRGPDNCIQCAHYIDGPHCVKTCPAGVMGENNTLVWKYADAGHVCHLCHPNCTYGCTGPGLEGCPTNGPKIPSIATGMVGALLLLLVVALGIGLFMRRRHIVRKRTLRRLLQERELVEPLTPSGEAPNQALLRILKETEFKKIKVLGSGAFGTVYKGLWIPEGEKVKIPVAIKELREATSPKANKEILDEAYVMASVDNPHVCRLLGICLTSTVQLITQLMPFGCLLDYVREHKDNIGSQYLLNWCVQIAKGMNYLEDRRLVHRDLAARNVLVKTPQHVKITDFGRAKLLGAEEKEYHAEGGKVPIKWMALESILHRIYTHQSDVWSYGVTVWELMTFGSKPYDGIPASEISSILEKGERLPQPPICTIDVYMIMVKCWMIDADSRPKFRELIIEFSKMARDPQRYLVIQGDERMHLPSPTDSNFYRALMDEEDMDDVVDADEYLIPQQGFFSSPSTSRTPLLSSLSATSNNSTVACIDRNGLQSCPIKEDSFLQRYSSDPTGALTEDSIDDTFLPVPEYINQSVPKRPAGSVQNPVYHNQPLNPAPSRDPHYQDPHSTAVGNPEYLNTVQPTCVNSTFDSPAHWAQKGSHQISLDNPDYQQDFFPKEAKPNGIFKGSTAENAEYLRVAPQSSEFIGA
# ASSAY EXPLANATION: Ba/F3 cell proliferation (Cell Titer Glo), EGFR L858R
# Type: cell-based, murine
# SETUP CONDITIONS: 72 hours, Table 6, read-out: L858R BaF3
MEASURED ENDPOINT: GI50

| COMPOUND | OBSERVED |
| --- | --- |
| C=CC(=O)N1CC[C@@H](N2Cc3cnc(Nc4ccc(N5CCN(C)CC5)cc4)nc3N(C)C2=O)c2cccc(O)c21 (single isomer, unassigned) | < 100 nM |
| C=C(F)C(=O)N1CC[C@H](N2Cc3cnc(Nc4ccc5c(c4)CCN(C)C5)nc3N(c3cnn(C)c3)C2=O)c2ccccc21 | < 100 nM |
| C=CC(=O)N1CCC(N2Cc3cnc(Nc4ccc(N5CCN(C)CC5)cc4)nc3N(C)C2=O)c2cccc(Cl)c21 (stereo not drawn) | 500 to 2500 nM |
| C=CC(=O)N1CCC(N2Cc3cnc(Nc4ccc(N5CCN(C)CC5)c(-c5cnn(C)c5)c4)nc3N(C)C2=O)c2ccccc21 (stereo not drawn) | < 100 nM |
| C=CC(=O)N1CCC(N2Cc3cnc(Nc4ccc(N5CCN(C)CC5)cc4)nc3N(C)C2=O)c2cccc(OC)c21 (stereo not drawn) [Compound 100] | < 100 nM |
| C=CC(=O)N(C)c1ccccc1CN1Cc2cnc(Nc3ccc(N4CCN(C)CC4)cc3)nc2N(C)C1=O | 100 to 500 nM |
| C=CC(=O)N1CCC(N2Cc3cnc(Nc4ccc(C5CCN(C)CC5)cc4)nc3N(C)C2=O)c2ccccc21 (stereo not drawn) | < 100 nM |
| C=CC(=O)N1CCC(N2Cc3cnc(Nc4ccc(N5CCN(C)CC5)cn4)cc3N(C)C2=O)c2ccccc21 (stereo not drawn) | < 100 nM |

Task: Retrieve GI50 measured for [2H]C1(N2Cc3cnc(Nc4cnn(CCO)c4)nc3N(C)C2=O)CCN(C(=O)C=C)c2ccccc21 (stereo not drawn) and print it.
Output: < 100 nM

Task: Retrieve GI50 measured for C=CC(=O)N1CCC(N2Cc3cnc(Nc4ccc(N5CCN(C)CC5)c(C(F)(F)F)c4)nc3N(C)C2=O)c2ccccc21 (stereo not drawn) and print it.
Output: < 100 nM

Task: Retrieve GI50 measured for `C=C(C)C(=O)N1CC[C@H](N2Cc3cnc(Nc4ccc(N5CCN(C)CC5)cc4)nc3N(C)C2=O)c2ccccc21` and print it.
Output: 500 to 2500 nM

Task: Retrieve GI50 measured for `C=CC(=O)N1CC[C@@H](N2Cc3cnc(Nc4ccc(N5CCN(C)CC5)cc4)nc3N(C)C2=O)c2ccccc21` and print it.
Output: < 100 nM

Task: Retrieve GI50 measured for C=CC(=O)N1c2ccccc2C(N2Cc3cnc(Nc4ccc(N5CCN(C)CC5)cc4)nc3N(C)C2=O)CC1(C)C (stereo not drawn) and print it.
Output: ≥ 2500 nM

---

# SUBJECT OF TEST: EGFR L858R (Homo sapiens, UniProt P00533, L858R)
# Sequence (P00533 25-1210 L858R): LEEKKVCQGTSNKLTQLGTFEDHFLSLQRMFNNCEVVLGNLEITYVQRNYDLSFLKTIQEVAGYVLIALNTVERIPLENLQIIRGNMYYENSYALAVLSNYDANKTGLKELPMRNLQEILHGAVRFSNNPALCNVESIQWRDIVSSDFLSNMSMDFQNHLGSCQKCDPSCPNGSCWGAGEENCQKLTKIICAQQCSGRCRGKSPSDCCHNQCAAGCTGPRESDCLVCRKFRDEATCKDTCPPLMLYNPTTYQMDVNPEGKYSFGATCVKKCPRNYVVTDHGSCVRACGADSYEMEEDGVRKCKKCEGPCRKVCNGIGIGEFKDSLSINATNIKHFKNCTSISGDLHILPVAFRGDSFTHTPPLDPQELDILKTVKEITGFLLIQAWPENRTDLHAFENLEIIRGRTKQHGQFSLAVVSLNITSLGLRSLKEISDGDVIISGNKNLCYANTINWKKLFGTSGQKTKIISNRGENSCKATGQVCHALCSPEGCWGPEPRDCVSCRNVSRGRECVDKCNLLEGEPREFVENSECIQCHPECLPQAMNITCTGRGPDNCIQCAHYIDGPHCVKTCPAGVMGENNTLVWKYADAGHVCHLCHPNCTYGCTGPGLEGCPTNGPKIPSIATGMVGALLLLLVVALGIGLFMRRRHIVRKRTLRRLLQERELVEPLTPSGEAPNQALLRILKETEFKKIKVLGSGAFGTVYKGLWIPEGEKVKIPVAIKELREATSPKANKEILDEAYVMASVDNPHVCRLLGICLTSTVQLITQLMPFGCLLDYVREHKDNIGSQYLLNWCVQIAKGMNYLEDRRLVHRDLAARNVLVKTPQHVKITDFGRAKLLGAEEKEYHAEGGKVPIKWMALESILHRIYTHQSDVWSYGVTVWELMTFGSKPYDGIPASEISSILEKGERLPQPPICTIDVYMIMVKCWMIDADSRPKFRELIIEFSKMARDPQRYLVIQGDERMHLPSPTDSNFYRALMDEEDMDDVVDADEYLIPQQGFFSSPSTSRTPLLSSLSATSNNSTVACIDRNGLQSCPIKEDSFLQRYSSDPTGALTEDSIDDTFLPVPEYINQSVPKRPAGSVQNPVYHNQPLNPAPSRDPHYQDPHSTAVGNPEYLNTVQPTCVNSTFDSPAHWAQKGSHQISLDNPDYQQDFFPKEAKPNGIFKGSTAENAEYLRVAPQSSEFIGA
# ASSAY EXPLANATION: EGFR biochemical assay (headed HTRF-based; method describes Z'-LYTE), L858R
# SETUP CONDITIONS: Table 4
The following compounds are listed with their measured IC50 values.

Sample records with IC50:
| COMPOUND | IC50 |
| --- | --- |
| C=CC(=O)N1CCC(C)(N2Cc3cnc(Nc4cnn(CCO)c4)nc3N(C)C2=O)CC1 | > 0.1 µM |
| C=C(F)C(=O)N1CC[C@H](N2Cc3cnc(Nc4cnn(CCO)c4)nc3N(C)C2=O)c2cccc(OC)c21 (single isomer, unassigned) | > 0.1 µM |
| C=CC(=O)N1CCC12CC(N1Cc3cnc(Nc4ccc(N5CCN(C)CC5)cc4)nc3N(C)C1=O)C2 (stereo not drawn) | > 1 µM |

Task: Retrieve IC50 measured for C=C(CN1CCC(N2Cc3cnc(Nc4ccc(N5CCN(C)CC5)cc4)nc3N(C)C2=O)C1)C(=O)O (stereo not drawn) and print it.
Output: > 1 µM

Task: Retrieve IC50 measured for [2H]C1(N2Cc3cnc(Nc4ccc(OCCN5CCCC5)cc4)nc3N(C)C2=O)CCN(C(=O)C=C)c2ccccc21 (stereo not drawn) and print it.
Output: 0.0009 µM

Task: Retrieve IC50 measured for `C=CC(=O)N1CC[C@@H](N2Cc3cnc(Nc4ccc(N5CCN(C)CC5)cc4)nc3N(C)C2=O)c2cccc(C)c21` and print it.
Output: > 1 µM

Task: Retrieve IC50 measured for `C=CC(=O)N(C)c1ccccc1CN1Cc2cnc(Nc3ccc(N4CCN(C)CC4)cc3)nc2N(C)C1=O` and print it.
Output: > 1 µM

Task: Retrieve IC50 measured for C=CC(=O)N1CCC(N2Cc3cnc(Nc4ccc(N5CCN(C)CC5)cc4)nc3N(C)C2=O)c2cccc(OC)c21 (single isomer, unassigned) [Compound 124] and print it.
Output: > 0.1 µM

Task: Retrieve IC50 measured for C=C(F)C(=O)N1CCC(N2Cc3cnc(Nc4cnn(CCO)c4)nc3-n3ccnc32)c2ccccc21 (stereo not drawn) [001A] and print it.
Output: > 0.1 µM

---

# SUBJECT OF TEST: EGFR L858R/C797S Ba/F3 cells (Homo sapiens, UniProt P00533, C797S/L858R, cells depend on it)
# Sequence (P00533 whole entry C797S/L858R): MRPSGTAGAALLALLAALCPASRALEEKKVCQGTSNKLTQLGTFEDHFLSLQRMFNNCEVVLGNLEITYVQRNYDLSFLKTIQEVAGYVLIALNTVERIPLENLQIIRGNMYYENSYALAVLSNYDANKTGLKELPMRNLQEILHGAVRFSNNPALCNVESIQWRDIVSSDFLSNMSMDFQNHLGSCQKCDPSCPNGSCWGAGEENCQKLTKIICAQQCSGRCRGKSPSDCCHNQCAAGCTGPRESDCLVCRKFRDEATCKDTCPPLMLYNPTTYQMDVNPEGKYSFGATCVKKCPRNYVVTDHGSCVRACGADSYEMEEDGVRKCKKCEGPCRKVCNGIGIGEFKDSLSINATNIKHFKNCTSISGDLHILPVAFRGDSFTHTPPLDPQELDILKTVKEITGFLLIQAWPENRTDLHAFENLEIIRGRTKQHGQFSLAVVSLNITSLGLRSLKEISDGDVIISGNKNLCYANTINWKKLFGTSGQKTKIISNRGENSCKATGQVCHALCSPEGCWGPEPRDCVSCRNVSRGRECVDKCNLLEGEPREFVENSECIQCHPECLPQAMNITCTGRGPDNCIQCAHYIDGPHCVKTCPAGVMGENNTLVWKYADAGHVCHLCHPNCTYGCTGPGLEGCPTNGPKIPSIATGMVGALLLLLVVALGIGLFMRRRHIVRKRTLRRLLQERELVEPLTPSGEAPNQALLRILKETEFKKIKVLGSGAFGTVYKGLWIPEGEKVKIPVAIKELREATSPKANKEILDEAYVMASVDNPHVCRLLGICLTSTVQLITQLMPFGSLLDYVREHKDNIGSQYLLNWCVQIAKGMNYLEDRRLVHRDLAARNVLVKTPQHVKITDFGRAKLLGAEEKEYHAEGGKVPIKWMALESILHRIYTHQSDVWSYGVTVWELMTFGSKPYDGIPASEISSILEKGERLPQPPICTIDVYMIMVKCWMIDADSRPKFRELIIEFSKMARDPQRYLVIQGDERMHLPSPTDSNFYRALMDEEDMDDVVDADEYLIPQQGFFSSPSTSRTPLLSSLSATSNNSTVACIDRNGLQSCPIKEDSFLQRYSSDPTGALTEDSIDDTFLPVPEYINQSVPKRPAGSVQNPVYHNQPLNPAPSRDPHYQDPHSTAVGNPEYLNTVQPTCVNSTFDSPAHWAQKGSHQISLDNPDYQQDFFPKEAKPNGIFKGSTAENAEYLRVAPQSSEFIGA
# ASSAY EXPLANATION: Ba/F3 cell proliferation (Cell Titer Glo), EGFR L858R/C797S
# Format: cell-based, murine
# SETUP CONDITIONS: 72 hours, Table 6
MEASURED ENDPOINT: GI50

Sample records with GI50:
| COMPOUND | OBSERVED |
| --- | --- |
| C=CC(=O)N1CCC(C)(N2Cc3cnc(Nc4cnn(CCO)c4)nc3N(C)C2=O)CC1 | ≥ 2500 nM |
| C=CC(=O)N1CC(N2Cc3cnc(Nc4ccc(N5CCN(C)CC5)cc4)nc3N(C)C2=O)c2ccccc21 (centres unmarked) | 100 to 500 nM |
| C=CC(=O)N1CCC(N2Cc3cnc(Nc4ccc(N5CCN(C)CC5)c(-c5cnn(C)c5)c4)nc3N(C)C2=O)c2ccccc21 (centres unmarked) | 100 to 500 nM |
| CN1C(=O)N([C@H]2CCN(C(=O)CC#N)c3ccccc32)Cc2cnc(Nc3cnn(CCO)c3)nc21 | ≥ 2500 nM |
| C=CC(=O)Nc1cccc(N2C(=O)N(C3CCN(C(=O)C=C)c4ccccc43)Cc3cnc(Nc4ccc(N5CCN(C)CC5)cc4)nc32)c1 (centres unmarked) | < 100 nM |

Task: Retrieve GI50 measured for `C=CC(=O)N1CC[C@H](N2Cc3cnc(Nc4ccc(N5CCN(C)CC5)cc4)nc3N(CCO)C2=O)c2cccc(C)c21` and print it.
Output: < 100 nM

Task: Retrieve GI50 measured for `C=CC(=O)N1CC[C@H](N2Cc3cnc(Nc4ccc(N5CCN(C)CC5)cc4)nc3N(C)C2=O)c2ccccc21` and print it.
Output: < 100 nM

Task: Retrieve GI50 measured for C=C(F)C(=O)N1CC[C@H](N2Cc3cnc(Nc4cnn(CCO)c4)nc3N(C)C2=O)c2cccc(OC)c21 (single isomer, unassigned) and print it.
Output: ≥ 2500 nM

Task: Retrieve GI50 measured for `CN1CCN(c2ccc(Nc3ncc4c(n3)N(C)C(=O)N([C@H]3CCN(C(=O)CC#N)c5ccccc53)C4)cc2)CC1` and print it.
Output: ≥ 2500 nM

Task: Retrieve GI50 measured for [2H]C1(N2Cc3cnc(Nc4cnn(CCO)c4)nc3N(C)C2=O)CCN(C(=O)C=C)c2ccccc21 (centres unmarked) and print it.
Output: < 100 nM

Task: Retrieve GI50 measured for C=CC(=O)N1CCC(N2Cc3cnc(Nc4ccc(S(=O)(=O)NCCO)cc4)nc3N(C)C2=O)c2ccccc21 (centres unmarked) and print it.
Output: ≥ 2500 nM

Task: Retrieve GI50 measured for C=CC(=O)N1CCC12CC(N1Cc3cnc(Nc4ccc(N5CCN(C)CC5)cc4)nc3N(C)C1=O)C2 (centres unmarked) and print it.
Output: ≥ 2500 nM

Task: Retrieve GI50 measured for `C/C=C(\F)C(=O)N1CC[C@H](N2Cc3cnc(Nc4ccc(N5CCN(C)CC5)cc4)nc3N(C)C2=O)c2ccccc21` and print it.
Output: 500 to 2500 nM

Task: Retrieve GI50 measured for C=CC(=O)N1CCC(N2Cc3cnc(Nc4ccc(N5CCN(C)CC5)cc4OC(F)(F)F)nc3N(C)C2=O)c2ccccc21 (centres unmarked) and print it.
Output: < 100 nM

---

The following molecules are listed with their measured pIC50 values.
# SUBJECT OF TEST: EGFR L858R/T790M (Homo sapiens, UniProt P00533, L858R/T790M)
# Sequence (P00533 25-1210 T790M/L858R): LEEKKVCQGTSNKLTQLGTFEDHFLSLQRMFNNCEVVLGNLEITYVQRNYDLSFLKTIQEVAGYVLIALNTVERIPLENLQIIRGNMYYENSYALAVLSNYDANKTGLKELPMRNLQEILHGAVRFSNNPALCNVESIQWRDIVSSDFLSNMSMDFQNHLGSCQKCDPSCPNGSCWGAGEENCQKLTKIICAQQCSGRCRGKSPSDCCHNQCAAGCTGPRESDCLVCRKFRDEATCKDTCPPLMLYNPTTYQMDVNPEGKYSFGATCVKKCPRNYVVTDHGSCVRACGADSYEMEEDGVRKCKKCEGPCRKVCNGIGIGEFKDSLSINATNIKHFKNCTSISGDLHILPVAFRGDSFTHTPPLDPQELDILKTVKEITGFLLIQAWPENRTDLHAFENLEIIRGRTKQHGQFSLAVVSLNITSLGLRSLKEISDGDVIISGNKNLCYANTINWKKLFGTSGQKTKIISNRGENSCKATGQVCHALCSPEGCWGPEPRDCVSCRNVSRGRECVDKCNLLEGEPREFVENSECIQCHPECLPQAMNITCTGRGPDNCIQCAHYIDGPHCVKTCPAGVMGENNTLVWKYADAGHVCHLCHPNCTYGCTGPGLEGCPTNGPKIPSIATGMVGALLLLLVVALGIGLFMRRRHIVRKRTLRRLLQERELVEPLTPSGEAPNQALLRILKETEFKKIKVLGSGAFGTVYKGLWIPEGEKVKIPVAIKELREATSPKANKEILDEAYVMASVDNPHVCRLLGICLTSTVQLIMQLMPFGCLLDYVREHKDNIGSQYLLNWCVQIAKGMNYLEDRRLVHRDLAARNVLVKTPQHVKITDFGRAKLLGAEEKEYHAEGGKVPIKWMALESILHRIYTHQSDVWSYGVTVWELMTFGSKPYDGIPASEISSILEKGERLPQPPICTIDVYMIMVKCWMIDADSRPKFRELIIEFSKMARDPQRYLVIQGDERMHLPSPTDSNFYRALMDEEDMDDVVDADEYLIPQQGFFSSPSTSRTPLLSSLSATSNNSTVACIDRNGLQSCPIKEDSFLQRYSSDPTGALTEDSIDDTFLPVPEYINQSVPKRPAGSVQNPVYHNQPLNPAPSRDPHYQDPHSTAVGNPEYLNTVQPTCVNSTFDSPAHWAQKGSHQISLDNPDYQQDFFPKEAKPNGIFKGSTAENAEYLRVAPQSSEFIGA
# ASSAY EXPLANATION: EGFR biochemical assay (headed HTRF-based; method describes Z'-LYTE), L858R/T790M
# SETUP CONDITIONS: Table 4
pIC50: −log10 of the molar value.

Sample records with pIC50:
| MOLECULE | SUBJECT OF TEST | pIC50 |
| --- | --- | --- |
| C=CC(=O)N1CC[C@H](N2Cc3cnc(Nc4ccc(CS(C)(=O)=O)cc4)nc3N(C)C2=O)c2cccc(C)c21 | EGFR L858R/T790M (Homo sapiens, UniProt P00533, L858R/T790M) | < 6.00 |
| C=C(F)C(=O)N1CC[C@@H](N2Cc3cnc(Nc4cnn(CCO)c4)nc3N(C)C2=O)c2cccc(OC)c21 (single isomer, unassigned) | EGFR L858R/T790M (Homo sapiens, UniProt P00533, L858R/T790M) | < 7.00 |
| C=CC(=O)N1CCC(N2Cc3cnc(Nc4ccc(N5CCN(C)CC5)cc4)nc3N(C)C2=O)c2cccc(Cl)c21 (stereo not shown) | EGFR L858R/T790M (Homo sapiens, UniProt P00533, L858R/T790M) | < 6.00 |

Task: Retrieve pIC50 measured for `C=CC(=O)N1CCC(C)(N2Cc3cnc(Nc4cnn(CCO)c4)nc3N(C)C2=O)CC1` and print it.
Output: < 7.00

Task: Retrieve pIC50 measured for [2H]C1(N2Cc3cnc(Nc4ccc(N5CCN(C)CC5)cc4)nc3N(C)C2=O)CCN(C(=O)C=C)c2c(OC)cccc21 (stereo not shown) and print it.
Output: < 6.00

Task: Retrieve pIC50 measured for C=CC(=O)N1CCC(N2Cc3cnc(Nc4ccc(N5CCN(C)CC5)cc4)nc3N(C)C2=O)c2cnn(C)c21 (stereo not shown) and print it.
Output: < 6.00

Task: Retrieve pIC50 measured for C=CC(=O)N1CC[C@H](N2Cc3cnc(Nc4ccc(N5CCN(C)CC5)cc4)nc3N(C3CC(O)C3)C2=O)c2cccc(C)c21 (stereo partly shown) and print it.
Output: < 6.00
